# measured on: CFTR (Homo sapiens, UniProt P13569)
# Sequence (P13569 with tags, fused parts or gaps DEL508-508): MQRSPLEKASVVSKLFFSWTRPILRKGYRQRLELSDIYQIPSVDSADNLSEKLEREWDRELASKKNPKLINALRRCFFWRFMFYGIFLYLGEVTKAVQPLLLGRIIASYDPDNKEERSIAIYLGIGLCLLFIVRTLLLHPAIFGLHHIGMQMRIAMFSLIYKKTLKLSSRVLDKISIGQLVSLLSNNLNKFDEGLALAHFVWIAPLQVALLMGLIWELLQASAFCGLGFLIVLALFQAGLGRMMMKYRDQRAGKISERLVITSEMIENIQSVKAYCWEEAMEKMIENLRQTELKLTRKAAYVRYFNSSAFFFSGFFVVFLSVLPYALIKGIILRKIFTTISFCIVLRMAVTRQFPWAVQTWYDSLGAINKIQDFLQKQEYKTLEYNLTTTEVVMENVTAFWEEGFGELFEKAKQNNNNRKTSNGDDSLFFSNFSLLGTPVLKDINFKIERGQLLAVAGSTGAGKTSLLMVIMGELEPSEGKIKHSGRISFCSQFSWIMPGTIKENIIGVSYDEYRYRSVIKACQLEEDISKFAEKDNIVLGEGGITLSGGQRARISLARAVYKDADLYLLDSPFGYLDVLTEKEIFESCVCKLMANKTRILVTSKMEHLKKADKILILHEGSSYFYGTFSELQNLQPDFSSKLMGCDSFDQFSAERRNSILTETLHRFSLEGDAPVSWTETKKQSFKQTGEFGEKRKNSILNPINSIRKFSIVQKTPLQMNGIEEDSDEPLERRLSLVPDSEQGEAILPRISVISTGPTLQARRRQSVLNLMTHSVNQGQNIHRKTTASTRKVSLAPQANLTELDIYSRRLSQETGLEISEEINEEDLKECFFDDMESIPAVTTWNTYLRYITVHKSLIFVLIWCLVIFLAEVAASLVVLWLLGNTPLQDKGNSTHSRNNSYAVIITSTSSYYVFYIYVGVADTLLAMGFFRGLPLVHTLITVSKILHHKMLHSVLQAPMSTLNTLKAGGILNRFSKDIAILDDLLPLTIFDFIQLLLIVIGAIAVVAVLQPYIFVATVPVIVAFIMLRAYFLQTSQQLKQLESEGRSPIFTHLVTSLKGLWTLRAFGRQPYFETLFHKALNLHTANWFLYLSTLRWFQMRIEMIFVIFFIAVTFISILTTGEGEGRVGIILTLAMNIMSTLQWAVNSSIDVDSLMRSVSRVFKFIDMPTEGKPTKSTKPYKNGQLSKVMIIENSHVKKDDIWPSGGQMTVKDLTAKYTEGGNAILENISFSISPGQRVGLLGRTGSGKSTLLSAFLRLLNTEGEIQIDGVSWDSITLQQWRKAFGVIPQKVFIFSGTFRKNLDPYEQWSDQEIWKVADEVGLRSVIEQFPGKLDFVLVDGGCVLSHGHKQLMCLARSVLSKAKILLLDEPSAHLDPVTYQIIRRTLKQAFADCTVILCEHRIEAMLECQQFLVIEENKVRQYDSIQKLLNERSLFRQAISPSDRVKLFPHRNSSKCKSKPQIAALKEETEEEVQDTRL
# method summary: Membrane potential dye, Enteroid Assay A
# Format: cell-based
# settings: Table 6; chloride transport as % of triple combination control (Enteroid Assay A)
# Method: Base medium (ADF+++) consisted of Advanced DMEM/Ham's F12, 2 mM Glutamax, 10 mM HEPES, […] penicillin/streptomycin. […] Enteroid cells were incubated with test compound in IEMM for 18-24 hours at 37° C., 95% humidity and 5% CO2. […] Chloride transport was initiated by addition of Chloride Free Dye Stimulation Solution and the fluorescence signal was read for 15 min. […]

compound	Ent. A Max Activity
Cc1cccc(C)c1-c1cc2nc(n1)NS(=O)(=O)c1cccc(c1)C(=O)N(CCC1CCOCC1)C(CCC1(C(F)(F)F)CC1)CO2 (stereo not drawn)	+++ (+++ is >60%)
Cc1cccc(C)c1-c1cc2nc(n1)NS(=O)(=O)c1cccc(c1)C(=O)N(C)CC(CN(CCC(C)(C)C)CCC(C)(C)C)O2 (stereo not drawn)	+++ (+++ is >60%)
